# Test system: E. coli TESEC Mtb DapB
# Protocol: growth (OD600 after 10 h); higher = more growth (less inhibition)
# Stated Conditions: arabinose induction (level): Low; compound 0.1 mM; raw OD600 reference: median of DMSO wells 0.227, cell-free background 0.041

Compound	growth
O=C(O)CCC(=O)Nc1ccc(S(=O)(=O)Nc2nccs2)cc1	0.258
CC(=O)OCC(=O)[C@@]1(O)CC[C@H]2[C@@H]3CCC4=CC(=O)CC[C@]4(C)[C@@]3(F)[C@@H](O)C[C@@]21C [Fludrocortisone acetate]	0.242
CC=CC1=C(C(=O)O)N2C(=O)[C@@H](NC(=O)[C@H](N)c3ccc(O)cc3)[C@H]2SC1	0.255
O=C1CCc2ccc(OCCCCN3CCN(c4cccc(Cl)c4Cl)CC3)cc2N1	0.213
COC(=O)Nc1nc2ccc(SC(C)C)cc2[nH]1	0.235
CCCCC(C)(O)C/C=C/[C@H]1[C@H](O)CC(=O)[C@@H]1CCCCCCC(=O)OC (mixture of isomers)	0.311
Cc1cc(=O)oc2cc(O)ccc12	0.208
O=C1[C@H](CC[C@H](O)c2ccc(F)cc2)[C@@H](c2ccc(O)cc2)N1c1ccc(F)cc1	0.0487

Values compiled from the supplement of paper PMC9262897.
